Reference for the values: the supplement of paper PMC4862054

- Test system: MDA-MB-231
- measurementDescription: normalised response (% of control), CellTiter-Glo; higher = more viable cells (100 = DMSO, 0 = benzethonium chloride kill control)
- statedConditions: incubation time: 72 h
property: normalised response (%)
Answers are plain numbers, in %.

// each listed molecule needs a value for normalised response
1. Nc1nc2[nH]cc(CCc3ccc(C(=O)N[C@@H](CCC(=O)O)C(=O)O)cc3)c2c(=O)[nH]1 [Pemetrexed] (100 nM)
2. C=CC(=O)Nc1cc2c(Nc3ccc(F)c(Cl)c3)ncnc2cc1OCCCN1CCOCC1 [Canertinib] (100 nM)
3. CC1=C(/C=C/C(C)=C/C=C/C(C)=C/C(=O)O)C(C)(C)CCC1 [Tretinoin] (100 nM)
4. Nc1ccccc1NC(=O)c1ccc(CNC(=O)OCc2cccnc2)cc1 [Entinostat] (100 nM)
5. CCc1cncnc1N1CCN(Cc2nc3ccc(C(F)(F)F)cc3[nH]2)CC1 (100 nM)
6. Oc1ncc(N(CCCl)CCCl)c(O)n1 [Uracil mustard] (100 nM)
7. CC(=O)Nc1cccc(-n2c(=O)n(C3CC3)c(=O)c3c(Nc4ccc(I)cc4F)n(C)c(=O)c(C)c32)c1 [Trametinib] (2.5 nM)

### Response
1. 96.8
2. 103
3. 102
4. 98.6
5. 110
6. 100
7. 86.5

----------
- Test system: CAL-51
- measurementDescription: normalised response (% of control), CellTiter-Glo; higher = more viable cells (100 = DMSO, 0 = benzethonium chloride kill control)
- statedConditions: incubation time: 72 h
property: normalised response (%)
Numbers only, in %.

Consider the reported normalised response for these compounds:
compound	reading
Cc1ccc(-c2cc(C(F)(F)F)nn2-c2ccc(S(N)(=O)=O)cc2)cc1 [Celecoxib] (10 nM)	106
Nc1nc2[nH]cc(CCc3ccc(C(=O)N[C@@H](CCC(=O)O)C(=O)O)cc3)c2c(=O)[nH]1 [Pemetrexed] (1000 nM)	90.6
Oc1ncc(N(CCCl)CCCl)c(O)n1 [Uracil mustard] (10 nM)	80.1
O=C(O)C(=O)O.[NH-][C@@H]1CCCC[C@H]1[NH-].[Pt+2] [Oxaliplatin] (1000 nM)	128
C[C@H]1C[C@@H]2[C@H]([C@@H](O)C[C@@]3(C)[C@H]2CC[C@]3(O)C(=O)CO)[C@@]2(C)C=CC(=O)C=C12 [Methylprednisolone] (1000 nM)	108

Report normalised response for every entry below.
1. Nc1ccccc1NC(=O)c1ccc(CNC(=O)OCc2cccnc2)cc1 [Entinostat] (1 nM)
2. O=C(O)CCCCC(CCSCc1ccccc1)SCc1ccccc1 (stereo unspecified) [CPI-613] (1 nM)
3. C=CCc1cccc(/C=N/NC(=O)CN2CCN(Cc3ccccc3)CC2)c1O [PAC-1] (1000 nM)
4. CC1=C(/C=C/C(C)=C/C=C/C(C)=C/C(=O)O)C(C)(C)CCC1 [Tretinoin] (1 nM)
5. O=C(Cc1ccc(-c2ccc(OCCN3CCOCC3)cc2)cn1)NCc1ccccc1 [KX2-391] (10 nM)
6. N#Cc1ccc(C(c2ccc(C#N)cc2)n2cncn2)cc1 [Letrozole] (10 nM)

### Response
1: 85.2; 2: 78.6; 3: 67.2; 4: 102; 5: 73.2; 6: 126

----------
- Tested on: CAL-120
- measurementDescription: normalised response (% of control), CellTox Green; higher = less cell death (100 = DMSO, 0 = benzethonium chloride kill control)
- statedConditions: incubation time: 72 h
property: normalised response (%)
Give bare numbers, in %.

compound	readingUnit	normalised response
O=C(O)CCCCC(CCSCc1ccccc1)SCc1ccccc1 (stereo not drawn) [CPI-613] (10000 nM)	%	98.6
CC[C@H](C)C(=O)O[C@H]1C[C@H](O)C=C2C=C[C@H](C)[C@H](CC[C@@H](O)C[C@@H](O)CC(=O)O)[C@H]21 [Pravastatin] (100 nM)	%	97.2
Nc1nc2[nH]cc(CCc3ccc(C(=O)N[C@@H](CCC(=O)O)C(=O)O)cc3)c2c(=O)[nH]1 [Pemetrexed] (100 nM)	%	98
CCCCC(=O)OCC(=O)[C@]1(O)Cc2c(O)c3c(c(O)c2[C@@H](O[C@H]2C[C@H](NC(=O)C(F)(F)F)[C@H](O)[C@H](C)O2)C1)C(=O)c1c(OC)cccc1C3=O [Valrubicin] (50 nM)	%	111
COc1cc([C@@H]2c3cc4c(cc3[C@@H](O[C@@H]3O[C@@H]5CO[C@@H](c6cccs6)O[C@H]5[C@H](O)[C@H]3O)[C@H]3COC(=O)[C@H]23)OCO4)cc(OC)c1O [Teniposide] (1000 nM)	%	88.1
CC[C@H](Nc1ncnc2[nH]cnc12)c1nc2cccc(F)c2c(=O)n1-c1ccccc1 [GS-1101] (10000 nM)	%	98.2
CCc1cncnc1N1CCN(Cc2nc3ccc(C(F)(F)F)cc3[nH]2)CC1 (10000 nM)	%	99.6

So, Cc1ccc(-c2cc(C(F)(F)F)nn2-c2ccc(S(N)(=O)=O)cc2)cc1 [Celecoxib] (1000 nM) ? Its normalised response was 101
